Entries and their IC50
Tested System: CnFTase (C. neoformans farnesyl transferase, α/β heterodimer) (Cryptococcus neoformans, UniProt J9VSJ6+T2BPA1)
Sequence (J9VSJ6 entry or part of it): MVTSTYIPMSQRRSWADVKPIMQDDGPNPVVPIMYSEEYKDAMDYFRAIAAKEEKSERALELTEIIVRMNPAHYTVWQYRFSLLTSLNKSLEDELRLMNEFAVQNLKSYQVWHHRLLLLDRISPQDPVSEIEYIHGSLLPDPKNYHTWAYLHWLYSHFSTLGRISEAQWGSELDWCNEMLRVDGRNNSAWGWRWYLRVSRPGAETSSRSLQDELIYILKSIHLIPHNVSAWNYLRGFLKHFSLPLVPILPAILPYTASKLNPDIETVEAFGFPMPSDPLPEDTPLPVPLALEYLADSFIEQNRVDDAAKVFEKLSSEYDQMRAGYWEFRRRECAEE
Sequence (T2BPA1 entry or part of it): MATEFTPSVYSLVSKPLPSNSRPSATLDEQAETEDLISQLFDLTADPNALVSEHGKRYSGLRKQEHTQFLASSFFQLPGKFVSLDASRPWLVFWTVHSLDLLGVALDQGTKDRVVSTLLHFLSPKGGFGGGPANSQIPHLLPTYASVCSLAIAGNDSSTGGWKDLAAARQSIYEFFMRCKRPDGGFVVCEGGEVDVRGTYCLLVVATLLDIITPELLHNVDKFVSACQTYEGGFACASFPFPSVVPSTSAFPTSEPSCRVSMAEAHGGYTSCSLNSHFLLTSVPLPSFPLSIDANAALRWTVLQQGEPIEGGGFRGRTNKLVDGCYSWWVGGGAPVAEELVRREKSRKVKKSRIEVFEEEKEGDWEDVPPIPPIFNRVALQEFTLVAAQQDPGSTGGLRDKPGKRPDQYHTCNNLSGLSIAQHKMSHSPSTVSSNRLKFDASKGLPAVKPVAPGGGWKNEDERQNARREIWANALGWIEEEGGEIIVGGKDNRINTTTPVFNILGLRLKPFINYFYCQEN
Test Description: CnFTase activity assay: farnesylation of a dansylated (fluorescent) peptide, inhibitor concentration giving half-maximal enzyme rates at 1 μM FPP (1μMIC50)
Run Parameters: read-out: CnFTase IC50 (1μMIC50), condition A: 20 nM CnFTase, dansyl-GCVVM 0.62 μM, Tris-HCl pH 7.5, ZnCl2 12.5 μM, 2.5% DMSO, room temperature, triplicate
Recorded Endpoint: IC50

[[record]]
smiles_input = "CCCC[C@H]1CN(c2cccc(OC(F)(F)F)c2)C(=O)CN1Cc1cncn1Cc1ccccc1"
recorded_endpoint = "IC50"
test_value = "1900 nM"

[[record]]
smiles_input = "CCC[C@H]1CN(c2cccc(OC(F)(F)F)c2)C(=O)CN1Cc1cncn1Cc1ccc(Br)cc1"
recorded_endpoint = "IC50"
test_value = "1100 nM"

[[record]]
smiles_input = "CCCC[C@H]1CN(c2cccc(OC(F)(F)F)c2)C(=O)CN1Cc1cncn1Cc1ccc(Oc2ccccc2)c(C#N)c1"
recorded_endpoint = "IC50"
test_value = "210 nM"

[[record]]
smiles_input = "CCCC[C@H]1CN(c2cccc(OC(F)(F)F)c2)C(=O)CN1Cc1cncn1Cc1ccc(Br)cc1"
recorded_endpoint = "IC50"
test_value = "190 nM"

[[record]]
smiles_input = "CCCC[C@H]1CN(c2cccc(Cl)c2)C(=O)CN1Cc1cncn1Cc1ccc(Cl)cc1"
recorded_endpoint = "IC50"
test_value = "1600 nM"

[[record]]
smiles_input = "CCCC[C@H]1CN(c2cccc(OC(F)(F)F)c2)C(=O)CN1Cc1cncn1Cc1ccc(F)c(C#N)c1"
recorded_endpoint = "IC50"
test_value = "180 nM"

[[record]]
smiles_input = "CCCC[C@H]1CN(c2ccccc2)C(=O)CN1Cc1cncn1Cc1ccc(Br)cc1"
recorded_endpoint = "IC50"
test_value = "920 nM"

[[record]]
smiles_input = "CCCC[C@H]1CN(c2cccc(OC(F)(F)F)c2)C(=O)CN1Cc1cncn1Cc1ccc(F)cc1"
recorded_endpoint = "IC50"
test_value = "710 nM"

